These data points were gathered from ChEMBL document CHEMBL3853331.

What efflux ratio was measured for each of the following?
Tested on: MDR1
Experiment: Efflux ratio of permeability in MDCK cells expressing MDR1 (unknown origin)
Format: ADME, cell-based, Canis lupus familiaris
Conditions: dog
Please reply with the value in numeric form only.

What measured efflux ratio goes with CS(=O)(=O)c1ccc(C2(CCO)CC(c3ccccc3)=NN2C(=O)Nc2ccc(F)cc2)cc1 (stereo not drawn) ?
104

And COc1ccc(C2=NN(C(=O)Nc3ccc(Cl)cc3)[C@](CCO)(c3cccnc3)C2)cc1 ?
17

Input O=C(Nc1ccc(F)cc1)N1N=C(c2ccncc2)CC1c1ccc(F)cc1 (stereo not drawn)
1

----------
Assay: Plasma concentration in Wistar rat at 100 mg/kg, po measured after 1 hr
Type: ADME, organism-based
QUANTITY KIND: concentration at 1 h (nM)
Number in nM, nothing else.

Consider the compound O=C(Nc1ccc(F)cc1)N1N=C(c2ccncc2)CC1c1ccc(F)cc1 (stereo unspecified) and give its measured concentration at 1 h.
1230
